Here, each record is paired with measured Kd data.
assayed-system: human C0-C2 region of cardiac myosin-binding protein-C (hC0-C2) (human) (UniProt Q14896)
measurement-protocol: ITC; 350 μM hS2 titrated into 20 μM hC0-C2 (with or without PKA phosphorylation) in PBS at 20 °C; MicroCal VP-ITC; 25 injections of 10 μl at 180 s; four-parameter logistic fit; Kd calculated from the reciprocal of the slope
Enter your answer as a number in µM; do not include the unit.

These solved cases illustrate the format of a correct answer.
human recombinant proximal S2 protein with E930Δ mutation (hS2^E930Δ) (domain or fragment, UniProt P12883 838-963, looked up, human β-myosin heavy chain (MYH7), proximal S2, residues 838-963, with the HCM-causing deletion of E930; mutation found in HCM patients, introduced by site-directed mutagenesis; coiled coil in low-salt buffer by CD) PLLKSAEREKEMASMKEEFTRLKEALEKSEARRKELEEKMVSLLQEKNDLQLQVQAEQDNLADAEERCDQLIKNKIQLEAKVKEMNERLEDEEMNAELTAKKRKLEDECSELKRDIDDLELTLAK
42.3
human recombinant proximal S2 protein with R870H mutation (hS2^R870H) (domain or fragment, UniProt P12883 838-963, looked up, human β-myosin heavy chain (MYH7), proximal S2, residues 838-963, with the HCM-causing mutation R870H; mutation found in HCM patients, introduced by site-directed mutagenesis; coiled coil in low-salt buffer by CD) PLLKSAEREKEMASMKEEFTRLKEALEKSEARHKELEEKMVSLLQEKNDLQLQVQAEQDNLADAEERCDQLIKNKIQLEAKVKEMNERLEDEEEMNAELTAKKRKLEDECSELKRDIDDLELTLAK
19
human recombinant proximal S2 protein with E924K mutation (hS2^E924K) (domain or fragment, UniProt P12883 838-963, looked up, human β-myosin heavy chain (MYH7), proximal S2, residues 838-963, with the HCM-causing mutation E924K; mutation found in HCM patients, introduced by site-directed mutagenesis; coiled coil in low-salt buffer by CD) PLLKSAEREKEMASMKEEFTRLKEALEKSEARRKELEEKMVSLLQEKNDLQLQVQAEQDNLADAEERCDQLIKNKIQLEAKVKEMNKRLEDEEEMNAELTAKKRKLEDECSELKRDIDDLELTLAK
30.5

# input for lookup
Quick check: Kd of human recombinant proximal S2 WT protein (hS2^Wt) (domain or fragment, UniProt P12883 838-963, looked up, pET28a+ vector; also called WT hS2; human cardiac myosin S2) PLLKSAEREKEMASMKEEFTRLKEALEKSEARRKELEEKMVSLLQEKNDLQLQVQAEQDNLADAEERCDQLIKNKIQLEAKVKEMNERLEDEEEMNAELTAKKRKLEDECSELKRDIDDLELTLAK ?
4.71

Every entry's value here was drawn from paper PMC8239744.
